Where a name gives a salt, the structure may show the parent alone.
MEASURE_NAME: melting point

Below: 3 compounds and their reported melting point.
compound="FC(F)c1nc2ccccc2n1-c1nc(NCc2ccccc2)nc(N2CCOCC2)n1 [Example 8]" endpoint_result="185 to 188 °C"
compound="FC(F)c1nc2ccccc2n1-c1nc(-c2cncnc2)cc(N2CCOCC2)n1 [Example 55]" endpoint_result="209 to 211 °C"
compound="FC(F)c1nc2ccccc2n1-c1nc(NCc2cccnc2)nc(N2CCOCC2)n1 [Example 14]" endpoint_result="160 to 161 °C"

Input COc1cccc2c1nc(C(F)F)n2-c1nc(-c2cncnc2)cc(N2CCOCC2)n1 [Example 56] . Output melting point: 222 to 224 °C

Input COc1cc(N)cc2c1nc(C(F)F)n2-c1nc(-c2cccnc2)cc(N2CCOCC2)n1 (as salt: methanesulfonate) [Example 68] . Output melting point: 246 °C (dec.)

Input COc1cccc2c1nc(C(F)F)n2-c1nc(N2CCOCC2)c2ncn(-c3cncnc3)c2n1 [Example 60] . Output melting point: 248 to 251 °C

Cited source: patent US8486939B2
